These data points were gathered from patent US5801178A.

target: ACAT derived from human macrophage (Homo sapiens, UniProt P35610); construct: Using, as an enzyme source, microsomal fractions prepared in the manner described below under Preparation of Microsome from U937 cells; endogenous in cells; host or cells: U937 cells differentiated with TPA, microsomal fraction; experiment: Inhibitory activity against ACAT derived from human macrophage (microsomes of TPA-differentiated U937 cells); assay type: biochemical; conditions: human macrophage (U937/TPA) microsome, pH 7.4, 37° C., 30 minutes
Sequence (P35610 whole entry): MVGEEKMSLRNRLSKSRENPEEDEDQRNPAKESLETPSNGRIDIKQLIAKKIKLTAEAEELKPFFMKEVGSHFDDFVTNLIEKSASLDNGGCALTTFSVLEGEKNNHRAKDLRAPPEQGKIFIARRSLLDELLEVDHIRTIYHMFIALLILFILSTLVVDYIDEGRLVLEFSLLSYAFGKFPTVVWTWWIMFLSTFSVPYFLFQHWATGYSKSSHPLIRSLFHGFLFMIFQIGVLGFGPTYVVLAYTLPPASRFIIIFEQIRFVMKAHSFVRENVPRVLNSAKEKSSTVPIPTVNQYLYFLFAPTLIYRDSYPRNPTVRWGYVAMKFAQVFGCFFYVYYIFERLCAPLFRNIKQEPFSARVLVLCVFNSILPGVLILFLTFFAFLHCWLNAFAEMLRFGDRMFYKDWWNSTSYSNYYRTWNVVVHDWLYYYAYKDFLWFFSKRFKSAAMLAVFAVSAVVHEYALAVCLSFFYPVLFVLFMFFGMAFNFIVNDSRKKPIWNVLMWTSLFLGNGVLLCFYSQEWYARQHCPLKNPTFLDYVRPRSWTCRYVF
Note to self: IC50 under 0.03 µM means y, ties and anything higher get n.

{"Molecule": "CCC=CCC=CCC=CCC=CCC=CCCCC(=O)Nc1c(C(C)C)cccc1C(C)C [Compound 11]", "Label": "y"}
{"Molecule": "CCC=CCC=CCC=CCC=CCC=CCC=CCCC(=O)Nc1c(CC)cccc1CC [Compound 10]", "Label": "y"}
{"Molecule": "CCC=CCC=CCC=CCC=CCC=CCC=CCCC(=O)Nc1c(F)cc(F)cc1F [Compound 4]", "Label": "n"}
{"Molecule": "CCC=CCC=CCC=CCC=CCC=CCCCC(=O)Nc1c(CC)cccc1CC [Compound 9]", "Label": "y"}
{"Molecule": "CCC=CCC=CCC=CCC=CCC=CCC=CCCC(=O)NC1CCCCC1NC(=O)Nc1c(C(C)C)cccc1C(C)C (centres unmarked) [Compound 18]", "Label": "n"}
{"Molecule": "CCC=CCC=CCC=CCC=CCC=CCCCC(=O)Nc1ccc(CNC(=O)Nc2c(C(C)C)cccc2C(C)C)cc1 [Compound 19]", "Label": "n"}

Ask: Quick check: does CCC=CCC=CCC=CCC=CCC=CCCCC(=O)Nc1c(C)cc(C)cc1C [Compound 5] have IC50 under 0.03 µM?
Reply: n

Ask: Quick check: does CCCCC/C=C\C/C=C\CCCCCCCC(=O)Nc1c(C(C)C)cccc1C(C)C [reference compound] have IC50 under 0.03 µM?
Reply: y
